- measuredOn: T1, interleukin-2 beta receptor (SYMANSIS, #4122H) to which a human immunoglobulin Fc region was linked (UniProt P14784 27-239, limits assumed)
- T1 construct: Bought receptor-Fc, captured on anti-human immunoglobulin antibody; also called IL-2Rβ; CD122; not shown: human immunoglobulin Fc region
- T1 sequence (looked up): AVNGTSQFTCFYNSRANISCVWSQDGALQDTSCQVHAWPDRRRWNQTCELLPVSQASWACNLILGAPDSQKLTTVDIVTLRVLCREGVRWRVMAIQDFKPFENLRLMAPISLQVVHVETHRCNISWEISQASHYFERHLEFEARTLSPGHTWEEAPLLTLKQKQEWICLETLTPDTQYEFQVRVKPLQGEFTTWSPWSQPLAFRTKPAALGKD
- assayNotes: SPR (Biacore T200); receptor-Fc captured on anti-human Ig CM5 chip, analog flowed; relative to analog 1 = 100%
propertyMeasured: Relative binding affinity (%)

binder	unitsSymbol	val
interleukin-2 analog 58 (ligand) PTSSSTKKTQLQLEHLLLDLQMILNGINNYKNPKLTAMLTKKFYMPKKATELKHLQCLEEELKPLEEVLNLAQSKNFHFDPRDAASNINVFVLELKGSETTFMCEYADETATIVEFLNRWITFSQSIISTLT	%	7770
interleukin-2 analog 52 (ligand) PTSSSTKKTQLQLEHLLLDLQMILNGINNYKNPKLTAMLTKKFYMPKKATELKHLQCLEEELKPLEEVLNLAQSKNFHFDPRDLISNINVFVLELKGSETTFMCEYADETATIVEFLNRWITFSQSIISTLT	%	3820
interleukin-2 analog 57 (ligand) PTSSSTKKTQLQLEHLLLDLQMILNGINNYKNPKLTAMLTKKFAMPKKATELKHLQCLEEELKPLEEVLNLAHSKNFHFDPRDLISNINVFVLELKGSETTFMCEYADETATIVEFLNRWITFSQSIISTLT	%	2570
interleukin-2 analog 93 (ligand) PTSSSTKKTQLQLEHLLLDLQMILNGINNYKNPKLTRMLTFKFYMPKKATELKHLQCLEEELKPLEEVLNLAQSKNFHFEPREVVSNINTFVLELKGSETTFMCEYADETATIVEFLNRWITFSQSIISTLT	%	697
interleukin-2 analog 76 (ligand) PTSSSTKKTQLQLEHLLLDLQMILNGINNYKNPKLTAMLTKQFYMPKKATELKHLQCLERELKPLEEVLNLAQSKNFHFDPRDVGSNINVFVLELKGSETTFMCEYADETATIVEFLNRWITFSQSIISTLT	%	1040
interleukin-2 analog 21 (ligand) PTSSSTKKTQLQLEHLLLDLQMILNGINNYKNPKLTAMLTKKFYMPKKATELKHLQCLEEELKPLEEVLNLAQSKNFHFDPRDVVSNINVFVLELKGSETTFMCEYADETATIVEFLNRWITFSQSIISTLT	%	14100

1. interleukin-2 analog 25 (ligand) PTSSSTKKTQLQLEHLLFDLQMILNGINNYKNPKLTAMLTKKFYMPKKATELKHLQCLEEELKPLEEVLNLAQSKNFHLRPRDLISNINVIVLELKGSETTFMCEYADETATIVEFLNRWITFSQSIISTLT
2. interleukin-2 analog 91 (ligand) PTSSSTKKTQLQLEHLLLDLQMILNGINNYKNPKLTRMLTFKFYMPKKATELKHLQCLEQELKPLEEVLNLAQSKNFHFEPRDVVSNINVFVLELKGSETTFMCEYADETATIVEFLNRWITFSQSIISTLT
Given the two records 1 and 2 , choose the one whose Relative binding affinity (%) value is lower. Which one? Tell me its label. 1
(1: 21.7%, 2: 7360%)

1. interleukin-2 analog 73 (ligand) PTSSSTKKTQLQLEHLLLDLQMILNGINNYKNPKLTAMLTKKFYMPKKATELKHLQCLEEELKPLEEVLNLAQSKNFHFDPRDWVSNINVFVLELKGSETTFMCEYADETATIVEFLNRWITFSQSIISTLT
2. interleukin-2 analog 53 (ligand) PTSSSTKKTQLQLEHLLLDLQMILNGINNYKNPKLTAMLTKKFYMPKKATELKHLQCLEEELKPLEEVLNLAQSKNFHFDPRELISNINVFVLELKGSETTFMCEYADETATIVEFLNRWITFSQSIISTLT
Which record would sort first by descending Relative binding affinity (%), 1 or 2 ? Reply with the label of the item you choose. 1

A. interleukin-2 analog 86 (ligand) PTSSSTKKTQLQLEHLRLDLEMILNGINNYKNPKLTRMLTFKFYMPKKATELKHLQCLEEELKPLEEVLNLAQSKNFHFEPRDVVSNINVFVLELKGSETTFMCEYADETATIVEFLNRWITFSQSIISTLT
B. interleukin-2 analog 84 (ligand) PTSSSTKKTQLQLEHLRLDLEMILNGINNYKNPKLTRMLTFKFYMPKKATELKHLQCLEEELKPLEEVLNLAQSKNFHVDPRDEVSNINVFVLELKGSETTFMCEYADETATIVEFLNRWITFSQSIISTLT
Would you mind telling me which has the lower recorded Relative binding affinity (%) between A and B ? Identify your pick by its label. B

P. interleukin-2 analog 75 (ligand) PTSSSTKKTQLQLEHLLLDLQMILNGINNYKNPKLTAMLTKKFAMPKKATELKHLQCLEEELKPLEEVLNLAQSKNFHFEPRDVVSNINVFVLELKGSETTFMCEYADETATIVEFLNRWITFSQSIISTLT
Q. interleukin-2 analog 55 (ligand) PTSSSTKKTQLQLEHLLLDLQMILNGINNYKNPKLTAMLTKKFYMPKKATELKHLQCLEEELKPLEEVLNLAHSKNFHFDPRDLISNINVFVLELKGSETTFMCEYADETATIVEFLNRWITFSQSIISTLT
Sorting by Relative binding affinity (%) in descending order, would P or Q appear first? Write down the label of the entry you select. P
